Data provenance is patent US20240092867A1.

study.system: T1, vascular endothelial growth factor (VEGF)-A165 (human, UniProt P15692-4 27-191)
T1 construct: mature; Purchased in mature form, not glycosylated
T1 sequence (P15692 other isoform, or with tags, fused parts or gaps limits assumed): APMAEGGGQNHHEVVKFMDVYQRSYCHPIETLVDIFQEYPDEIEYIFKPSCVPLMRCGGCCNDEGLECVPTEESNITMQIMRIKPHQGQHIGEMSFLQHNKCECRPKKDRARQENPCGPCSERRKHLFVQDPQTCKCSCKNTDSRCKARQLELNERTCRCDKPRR
protocol.description: ELISA, HBD peptides
measure.name: binding result

Would you please look over these solved cases?
YIGLKDRKRPSELSRIASQVKYA (The entry already carries the substitution) [vWF A1 HBD R1341S] ... no binding
YIGLKDRKRPSELLRIASQVKYA (The entry already carries the substitution) [vWF A1 HBD R1341L] ... no binding
YIGLKDRKRPSELPRIASQVKYA (The entry already carries the substitution) [vWF A1 HBD R1341P] ... no binding
YIGLKDRKRPSELWRIASQVKYA (The entry already carries the substitution) [vWF A1 HBD R1341W] ... no binding

Field: next binder
For YIGLKDRKRPSELQRIASQVKYA (The entry already carries the substitution) [vWF A1 HBD R1341Q] , what is its reported binding result?
no binding
